Each record here notes measured IC50.
target: human Cav3.2 channels (Homo sapiens, UniProt O95180); construct: expressed in transfected cells; host or cells: HEK293 cells (ATCC No. CRL-1573), plasmid pcDNA3.1(+); test: Intracellular calcium concentration measurement (Fluo-4 AM) in stable cells expressing human Cav3.2 channels, buffer A / buffer B; format: cell-based; conditions: Table 1; buffer B, equilibrium potential of potassium −110 mV; read-out: Inhibitory action of buffer B (resting state or closed state)
Sequence (O95180 whole entry): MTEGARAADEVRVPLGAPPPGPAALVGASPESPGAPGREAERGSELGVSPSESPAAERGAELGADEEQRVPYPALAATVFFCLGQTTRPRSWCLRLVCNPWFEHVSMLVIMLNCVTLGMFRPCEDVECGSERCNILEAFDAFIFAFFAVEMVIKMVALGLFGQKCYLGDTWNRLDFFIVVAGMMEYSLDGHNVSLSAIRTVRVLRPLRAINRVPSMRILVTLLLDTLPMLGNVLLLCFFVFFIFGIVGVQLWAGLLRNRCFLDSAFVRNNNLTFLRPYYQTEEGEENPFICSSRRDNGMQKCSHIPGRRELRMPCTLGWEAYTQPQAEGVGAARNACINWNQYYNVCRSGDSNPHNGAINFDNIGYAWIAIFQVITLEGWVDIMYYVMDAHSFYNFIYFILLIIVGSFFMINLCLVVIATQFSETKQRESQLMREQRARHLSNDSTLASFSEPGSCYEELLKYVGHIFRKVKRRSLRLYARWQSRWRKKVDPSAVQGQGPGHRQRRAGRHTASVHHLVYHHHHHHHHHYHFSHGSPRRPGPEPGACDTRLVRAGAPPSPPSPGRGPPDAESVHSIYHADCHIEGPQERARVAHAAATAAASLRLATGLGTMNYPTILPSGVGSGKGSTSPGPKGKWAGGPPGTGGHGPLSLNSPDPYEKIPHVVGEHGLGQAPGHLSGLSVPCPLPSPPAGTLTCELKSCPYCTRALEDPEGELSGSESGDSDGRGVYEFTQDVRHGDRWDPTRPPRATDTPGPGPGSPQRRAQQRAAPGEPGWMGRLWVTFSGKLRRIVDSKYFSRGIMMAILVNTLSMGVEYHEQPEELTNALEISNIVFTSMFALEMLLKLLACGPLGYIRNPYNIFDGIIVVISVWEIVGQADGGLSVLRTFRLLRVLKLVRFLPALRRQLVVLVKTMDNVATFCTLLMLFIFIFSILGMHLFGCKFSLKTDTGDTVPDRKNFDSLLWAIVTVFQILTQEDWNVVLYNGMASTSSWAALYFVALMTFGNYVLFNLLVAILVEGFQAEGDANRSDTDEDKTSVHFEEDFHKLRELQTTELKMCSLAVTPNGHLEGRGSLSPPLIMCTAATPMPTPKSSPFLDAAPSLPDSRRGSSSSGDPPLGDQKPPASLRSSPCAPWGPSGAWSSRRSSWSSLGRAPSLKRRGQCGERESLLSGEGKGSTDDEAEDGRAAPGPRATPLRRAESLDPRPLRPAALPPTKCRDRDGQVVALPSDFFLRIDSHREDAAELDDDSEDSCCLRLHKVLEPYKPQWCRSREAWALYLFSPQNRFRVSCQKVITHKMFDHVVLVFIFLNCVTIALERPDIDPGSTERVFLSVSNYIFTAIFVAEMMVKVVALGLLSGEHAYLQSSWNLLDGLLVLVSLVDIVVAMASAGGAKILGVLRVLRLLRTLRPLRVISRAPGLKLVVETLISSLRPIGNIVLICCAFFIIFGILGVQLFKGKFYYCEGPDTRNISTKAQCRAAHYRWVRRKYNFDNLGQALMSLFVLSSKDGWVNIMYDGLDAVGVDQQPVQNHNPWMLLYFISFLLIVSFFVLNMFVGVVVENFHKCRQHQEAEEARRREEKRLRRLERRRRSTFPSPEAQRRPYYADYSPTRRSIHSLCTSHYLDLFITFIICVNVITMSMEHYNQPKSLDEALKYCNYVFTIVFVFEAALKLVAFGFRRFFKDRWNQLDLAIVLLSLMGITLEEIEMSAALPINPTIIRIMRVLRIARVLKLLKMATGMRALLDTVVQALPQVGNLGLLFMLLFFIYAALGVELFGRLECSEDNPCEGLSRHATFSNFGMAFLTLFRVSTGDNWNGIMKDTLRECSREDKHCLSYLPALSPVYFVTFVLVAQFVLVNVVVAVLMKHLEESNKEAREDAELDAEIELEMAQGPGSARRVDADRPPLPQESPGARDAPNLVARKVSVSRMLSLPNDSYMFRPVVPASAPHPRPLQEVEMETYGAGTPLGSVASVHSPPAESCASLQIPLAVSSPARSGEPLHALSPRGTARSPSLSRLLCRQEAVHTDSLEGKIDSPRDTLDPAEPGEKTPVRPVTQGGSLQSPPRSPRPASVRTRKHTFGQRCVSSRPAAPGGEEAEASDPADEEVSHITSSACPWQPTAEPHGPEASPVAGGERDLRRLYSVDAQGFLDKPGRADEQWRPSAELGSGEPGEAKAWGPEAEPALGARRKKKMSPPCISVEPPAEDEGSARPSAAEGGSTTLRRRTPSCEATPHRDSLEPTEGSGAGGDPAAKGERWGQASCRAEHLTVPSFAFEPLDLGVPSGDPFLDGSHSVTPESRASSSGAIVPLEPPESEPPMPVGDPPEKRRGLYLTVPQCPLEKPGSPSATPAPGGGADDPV
Counter-ions that a name gives are not always drawn.

Solved cases below.
>  <Compound>
C[C@@H](NC(=O)C1CC1c1nc2ccccc2[nH]1)c1ccc(C(F)(F)F)s1 (single isomer, unassigned) [Example 5B]

>  <Target desc>
human Cav3.2 channels (Homo sapiens, UniProt O95180)

>  <Endpoint>
IC50

>  <Result>
1000 to 10000 nM

$$$$
>  <Compound>
C[C@@H](NC(=O)C1CC1c1nc2ccccc2[nH]1)c1ccc(Br)s1 (single isomer, unassigned) [Example 6A]

>  <Target desc>
human Cav3.2 channels (Homo sapiens, UniProt O95180)

>  <Endpoint>
IC50

>  <Result>
1000 to 10000 nM

$$$$
>  <Compound>
C[C@@H](NC(=O)C1CC1c1nc2ccccc2[nH]1)c1ccc(C(F)(F)F)s1 (single isomer, unassigned) [Example 5A]

>  <Target desc>
human Cav3.2 channels (Homo sapiens, UniProt O95180)

>  <Endpoint>
IC50

>  <Result>
100 to 1000 nM

$$$$
>  <Compound>
Cc1cc([C@@H](C)NC(=O)C2CC2c2nc3ccccc3[nH]2)sc1OCC(F)(F)F (single isomer, unassigned)

>  <Target desc>
human Cav3.2 channels (Homo sapiens, UniProt O95180)

>  <Endpoint>
IC50

>  <Result>
> 10000 nM

$$$$
>  <Compound>
C[C@@H](NC(=O)[C@H]1CCN(CC(=O)NC(C)(C)C)C1)c1ccc(OCC(F)(F)F)s1 [Example 14, hydrochloride]

>  <Target desc>
human Cav3.2 channels (Homo sapiens, UniProt O95180)

>  <Endpoint>
IC50

>  <Result>
1000 to 10000 nM

$$$$

Shift focus to the following entry.
State, in one line, measured IC50 of C[C@@H](NC(=O)C1CC1c1nc2ccccc2[nH]1)c1ccc(OCC(F)(F)F)s1 (single isomer, unassigned) [Example 3B]
1000 to 10000 nM

----------
biological target: human Cav3.2 channels (Homo sapiens, UniProt O95180); construct: expressed in transfected cells; host or cells: HEK293 cells (ATCC No. CRL-1573), plasmid pcDNA3.1(+); assay: Intracellular calcium concentration measurement (Fluo-4 AM) in stable cells expressing human Cav3.2 channels, buffer A / buffer B; format: cell-based; details: Tables 2 to 6; buffer A, equilibrium potential of potassium −92 mV; read-out: Inhibitory action of buffer A (inactivated state)
pIC50: −log10 of the molar value.
Overview of recorded pIC50 for various molecules

Examples with their reported pIC50 follow.
>  <Molecule>
C[C@@H](NC(=O)[C@H]1C[C@@H]1c1nc2cc(Cl)ccc2[nH]1)c1cc2cc(F)ccc2o1

>  <Result>
≥ 7.00

$$$$
>  <Molecule>
C[C@@H](NC(=O)[C@H]1C[C@@H]1c1nc2ccccc2[nH]1)c1cc2cc(F)cc(F)c2o1

>  <Result>
≥ 7.00

$$$$
>  <Molecule>
C[C@@H](NC(=O)[C@H]1C[C@@H]1c1nc2ccccc2[nH]1)c1ccc2ccccc2n1

>  <Result>
6.00 to 7.00

$$$$
>  <Molecule>
CC(NC(=O)[C@H]1C[C@@H]1c1nc2ccccc2[nH]1)c1nc2ccc(F)cc2[nH]1 (single isomer, unassigned) [Example 127A]

>  <Result>
6.00 to 7.00

$$$$
>  <Molecule>
C[C@@H](NC(=O)C1CC1c1cc(F)cc(F)c1)c1ccc(OCC(F)(F)F)s1 (single isomer, unassigned) [Example 19B]

>  <Result>
< 5.00

$$$$

Answer with the recorded pIC50 for the molecule listed here: C[C@@H](NC(=O)C1CC1c1nc2ccccc2[nH]1)c1ccc(C(=O)N2CCN(C)CC2)s1 (stereo in doubt)
5.00 to 6.00

Give pIC50 for the following molecule: C[C@@H](NC(=O)C1CC1c1nc2cc(Cl)ccc2[nH]1)c1nc(C2CC2)no1 (single isomer, unassigned) [Example 77B]
5.00 to 6.00

Indicate its recorded pIC50; the molecule in question is C[C@@H](NC(=O)C1CC1c1cn(C)c2ccccc12)c1cnc(OCC(F)(F)F)s1 (single isomer, unassigned)
≥ 7.00

Read the entry C[C@@H](NC(=O)C1CC1c1nc2ccccc2[nH]1)c1ccc(C(=O)N2CCCCC2)s1 (stereo in doubt) and write its reported pIC50.
6.00 to 7.00
